# Target System: A-Raf kinase (SEQ. ID No: 1) (Homo sapiens (Human), UniProt P10398, Y301D/Y302D)
# Sequence (P10398 other isoform, or with tags, fused parts or gaps Y301D (already in the parent)/Y302D (already in the parent)): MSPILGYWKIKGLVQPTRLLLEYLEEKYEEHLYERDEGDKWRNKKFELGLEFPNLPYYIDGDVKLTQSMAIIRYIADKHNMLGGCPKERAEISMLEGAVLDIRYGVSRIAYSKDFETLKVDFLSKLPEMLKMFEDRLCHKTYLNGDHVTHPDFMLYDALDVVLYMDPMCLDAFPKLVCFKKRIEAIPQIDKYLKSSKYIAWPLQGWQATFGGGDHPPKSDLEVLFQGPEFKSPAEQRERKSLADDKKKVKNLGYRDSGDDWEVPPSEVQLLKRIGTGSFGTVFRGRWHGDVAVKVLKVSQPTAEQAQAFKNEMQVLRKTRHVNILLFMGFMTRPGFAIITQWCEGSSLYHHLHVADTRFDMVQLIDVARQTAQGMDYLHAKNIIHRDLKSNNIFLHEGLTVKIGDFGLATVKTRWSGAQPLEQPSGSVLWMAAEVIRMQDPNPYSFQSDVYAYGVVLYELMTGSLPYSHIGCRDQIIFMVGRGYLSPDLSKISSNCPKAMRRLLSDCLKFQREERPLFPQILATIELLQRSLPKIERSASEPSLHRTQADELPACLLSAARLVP
# Experimental Protocol: Biochemical Assay for A-Raf (1)
# Stated Conditions: Table J, assay version (1); read-out: ARAF (1) IC50
pIC50: −log10 of the molar value.
Catalogue of pIC50 values

For Cc1cc(-c2cc(NC(=O)C3CC3)ncn2)cc(-c2cc(NC(=O)c3ccnc(C(C)(C)C#N)c3)ccc2C)c1 [Example 212] the compound record lists pIC50 as 5.00 to 6.00

---
For CNC(=O)c1cc(-c2cccc(-c3cc(NC(=O)c4ccnc(C(C)(C)C#N)c4)ccc3C)c2)cnn1 [Example 191] the compound record lists pIC50 as 5.00 to 6.00

For COC(C)(C)C(=O)Nc1cc(-c2cccc(-c3cc(NC(=O)c4ccnc(C(C)(C)C#N)c4)ccc3C)c2)ncn1 [Example 211] the compound record lists pIC50 as 5.00 to 6.00
